tested on: Liver microsomes; test: Half life in human liver microsomes after 90 mins by LC/MS analysis; type: ADME, Microsome; conditions: 1.5 h
Record form. Attribute: t1/2. Fill in for each entry.
Give the value in min but do not write min after it.

Any idea what t1/2 was measured for "Cc1ccc(S(=O)(=O)N2CCC(C(=O)Nc3cccc4cccnc34)CC2)c(C)c1" ?
11

Query "Cc1ccc(S(=O)(=O)N2CCC(C(=O)Nc3ccc(C(C)C)cc3)CC2)c(C)c1" next
25

Query "Cc1ccc(S(=O)(=O)N2CCC(C(=O)NC3CCCC3)CC2)c(C)c1" next
14

Query "Cc1ccc(S(=O)(=O)N2CCC(C(=O)NC3CC3)CC2)c(C)c1" next
180

Query "Cc1ccc(S(=O)(=O)N2CCC(C(=O)Nc3ccc4c(c3)OCO4)CC2)c(C)c1" next
46

Query "Cc1ccc(S(=O)(=O)N2CCC(C(=O)Nc3ccc(S(=O)(=O)C(F)(F)F)cc3)CC2)c(C)c1" next
36

Query "Cc1ccc(S(=O)(=O)N2CCC(C(=O)Nc3ccccc3O)CC2)c(C)c1" next
2.4

Query "COC(=O)c1ccc(NC(=O)C2CCN(S(=O)(=O)c3ccc(C)cc3C)CC2)cc1" next
3.7

Query "Cc1ccc(S(=O)(=O)N2CCC(C(=O)Nc3ccc4cc(C(=O)O)ccc4c3)CC2)c(C)c1" next
36

Query "Cc1ccc(S(=O)(=O)N2CCC(C(=O)NC34CC5CC(CC(C5)C3)C4)CC2)c(C)c1" next
14

Query "Cc1ccc(S(=O)(=O)N2CCC(C(=O)Nc3ccc4ccccc4c3)CC2)c(C)c1" next
8.7

Query "Cc1ccc(S(=O)(=O)N2CCC(C(=O)Nc3cccc4cnccc34)CC2)c(C)c1" next
220
